test system: 786-0; assay: NCI tumour cell line growth inhibition, 48 h
Active and inactive are the calls of the source. Cut-off read from the data, not from the text of the source: active = GI50 up to about 1.1 µM and inactive = higher.
Respond with a class label; see active, inactive

Per the assay record, what outcome was assigned to O=C1C2=C(c3ccccc31)C(c1ccccc1Cl)N1C(=O)CSC1=N2 (stereo not drawn) ?
inactive

Item: C=C1C(=O)OC2CCCCC3OC3C12 (stereo not drawn)
inactive

Item: CN1CC2=C(N=C(S)NC2c2ccc(Cl)cc2)/C(=C/c2ccc(Cl)cc2)C1 (stereo not drawn)
inactive

Item: C=CCC1C(=O)C(C(=O)OC)N2CCc3c([nH]c4ccccc34)C12 (stereo not drawn)
inactive

Item: COc1ccccc1N1C(=O)CSC1c1c[nH]c2ccccc12 (stereo not drawn)
inactive

Item: O=P(c1ccccc1)(c1ccccc1)N1O[C@@H](c2ccccc2)C=C[C@H]1c1ccccc1
inactive

Item: CCCC[C@H]1C(=O)O[C@H](C)[C@H](NC(=O)c2cccc(NC=O)c2OC)C(=O)O[C@@H](C)[C@@H]1OC(=O)C(C)CC.CCCC[C@H]1C(=O)O[C@H](C)[C@H](NC(=O)c2cccc(NC=O)c2OC)C(=O)O[C@@H](C)[C@@H]1OC(=O)CC(C)C (stereo partly drawn)
inactive

Item: O=c1cc(NNc2ccccc2F)[nH]c(=O)[nH]1
inactive

Item: CC(=O)n1ccc2c(Cl)ncnc21
inactive

Item: Cc1ccccc1C(=O)N1CCN(C(=O)c2ccccc2C)CC1
inactive

Item: CC#COS(=O)(=O)c1ccc(C)cc1
inactive

Item: N#CC(C#N)[C@@H]1CCC=C(Sc2ccccc2)[C@H]1Sc1ccccc1
inactive

Item: O=S1(=O)c2ccccc2-c2nccc3ccnc1c23
inactive

Item: Cc1ccc(S(=O)(=O)N2CCC2c2ccccc2)cc1 (stereo not drawn)
inactive

Item: COc1cccc2[nH]c(-c3ccccn3)nc12
inactive
